# test.target: rI-FABP (SEQ ID NO: 3) variant L22P33 A10, 38R 72A 73N 106S 115C (Rattus norvegicus, UniProt P02693, A74N/L39R/L73A/Q116C/R107S)
# measurement.description: bilirubin binding to L22P33A10 probe
# condition.parameters: Table 5, acrylodan
# Protocol: Also described are analytical/mathematical methods for calibrating and using the bilirubin probes. […] Binding isotherms are performed in aqueous buffer by measuring the change in fluorescence of the bilirubin probes in response to increasing bilirubin concentrations (“titration data”). […]
measured.metric: Kd (nM)
State just the number; it will be interpreted in nM.

Input line: Quick one: give measured Kd for C=CC1=C(C)/C(=C/c2[nH]c(Cc3[nH]c(/C=C4\NC(=O)C(C)=C4C=C)c(C)c3CCC(=O)O)c(CCC(=O)O)c2C)NC1=O
Output line: 245

====

# test.target: rI-FABP (SEQ ID NO: 3) variant L24P19 C7, 14R 18L 27A 38V 60R 73F 106A 115R 117D (Rattus norvegicus, UniProt P02693, A74F/K28A/L39V/L73A/M19L/Q116R/R107A/V61R/Y118D/Y15R)
# Construct: Residues 27 and 106 disputed: row prints 27A 106A
# Sequence (P02693 with tags, fused parts or gaps Y15R/M19L/K28A/L39V/V61R/L73A/A74F/R107A/Q116R/Y118D): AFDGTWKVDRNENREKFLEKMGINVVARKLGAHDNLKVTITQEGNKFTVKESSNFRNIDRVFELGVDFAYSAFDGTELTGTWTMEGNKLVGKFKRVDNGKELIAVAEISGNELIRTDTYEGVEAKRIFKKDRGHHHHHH
# measurement.description: bilirubin binding to L24P19 C7 as listed in Table 6
# condition.parameters: Table 6, acrylodan
measured.metric: pKd
Friendly reminder that pKd comes from taking -log10 of the concentration in mol/L.

Input line: Quick one: give measured pKd for C=CC1=C(C)/C(=C/c2[nH]c(Cc3[nH]c(/C=C4\NC(=O)C(C)=C4C=C)c(C)c3CCC(=O)O)c(CCC(=O)O)c2C)NC1=O
Output line: 7.48

====

# test.target: rI-FABP (SEQ ID NO: 3) variant L24P19 C7 K27K 26C, 14R 18L 26C 38V 60R 73F 106C 115R 117D (Rattus norvegicus, UniProt P02693, A74F/L39V/L73A/M19L/Q116R/R107C/V27C/V61R/Y118D/Y15R)
# measurement.description: bilirubin binding to L24P19C7 26C probe
# condition.parameters: Table 5, acrylodan
measured.metric: Kd (nM)
State just the number; it will be interpreted in nM.

Input line: Quick one: give measured Kd for C=CC1=C(C)/C(=C/c2[nH]c(Cc3[nH]c(/C=C4\NC(=O)C(C)=C4C=C)c(C)c3CCC(=O)O)c(CCC(=O)O)c2C)NC1=O
Output line: 19

====

# test.target: rI-FABP (SEQ ID NO: 3) variant BL10P10 D10, 14F 18L 27C 38M 60Y 73F 106V 115R 117D (Rattus norvegicus, UniProt P02693, A74F/K28C/L39M/L73A/M19L/Q116R/R107V/V61Y/Y118D/Y15F)
# measurement.description: bilirubin binding to BL10P10D10 probe
# condition.parameters: Table 5, acrylodan
measured.metric: pKd
Friendly reminder that pKd comes from taking -log10 of the concentration in mol/L.

Input line: Quick one: give measured pKd for C=CC1=C(C)/C(=C/c2[nH]c(Cc3[nH]c(/C=C4\NC(=O)C(C)=C4C=C)c(C)c3CCC(=O)O)c(CCC(=O)O)c2C)NC1=O
Output line: 6.40

====

# test.target: rI-FABP (SEQ ID NO: 3) variant L24P19 C7 K27K 25C, 14R 18L 25C 38V 60R 73F 106C 115R 117D (Rattus norvegicus, UniProt P02693, A74F/L39V/L73A/M19L/Q116R/R107C/V26C/V61R/Y118D/Y15R)
# Sequence (P02693 with tags, fused parts or gaps Y15R/M19L/V26C/L39V/V61R/L73A/A74F/R107C/Q116R/Y118D): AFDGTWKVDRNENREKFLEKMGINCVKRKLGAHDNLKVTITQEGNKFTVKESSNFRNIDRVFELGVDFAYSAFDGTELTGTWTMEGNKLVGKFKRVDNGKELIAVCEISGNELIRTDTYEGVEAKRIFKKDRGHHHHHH
# measurement.description: bilirubin binding to L24P19C7 25C probe
# condition.parameters: Table 5, acrylodan
measured.metric: Kd (nM)
State just the number; it will be interpreted in nM.

Input line: Quick one: give measured Kd for C=CC1=C(C)/C(=C/c2[nH]c(Cc3[nH]c(/C=C4\NC(=O)C(C)=C4C=C)c(C)c3CCC(=O)O)c(CCC(=O)O)c2C)NC1=O [bilirubin]
Output line: 19
